// data source = paper PMC8584173

system: Superoxide dismutase [Mn], mitochondrial (SODM_HUMAN); assay: LC–MS proteome analysis, SODM; type: cell-based, Homo sapiens; conditions: SW620, 24 h, IC50 concentration, % of control
outcome measure: Protein Intensity, % (SODM) (%)

[[record]]
compound = "O=[N+]([O-])c1cc([N+]2=C(Nc3ccccc3F)[S][Cu-2]23[S]C(Nc2ccccc2F)=[N+]3c2ccc(Cl)c([N+](=O)[O-])c2)ccc1Cl [Compound 7]"
tgt = "Superoxide dismutase [Mn], mitochondrial (SODM_HUMAN)"
measurement = 45.3

[[record]]
compound = "O=[N+]([O-])c1cc([N+]2=C(Nc3ccc(Br)cc3)[S][Cu-2]23[S]C(Nc2ccc(Br)cc2)=[N+]3c2ccc(Cl)c([N+](=O)[O-])c2)ccc1Cl [Compound 3]"
tgt = "Superoxide dismutase [Mn], mitochondrial (SODM_HUMAN)"
measurement = 77.1

[[record]]
compound = "O=[N+]([O-])c1cc([N+]2=C(Nc3ccc(I)cc3)[S][Cu-2]23[S]C(Nc2ccc(I)cc2)=[N+]3c2ccc(Cl)c([N+](=O)[O-])c2)ccc1Cl [Compound 8]"
tgt = "Superoxide dismutase [Mn], mitochondrial (SODM_HUMAN)"
measurement = 92.7

[[record]]
compound = "O=[N+]([O-])c1cc([N+]2=C(Nc3ccccc3Br)[S][Cu-2]23[S]C(Nc2ccccc2Br)=[N+]3c2ccc(Cl)c([N+](=O)[O-])c2)ccc1Cl [Compound 1]"
tgt = "Superoxide dismutase [Mn], mitochondrial (SODM_HUMAN)"
measurement = 88.8

